TARGET_ENTITY: His-Tau40P301L Tau (UniProt P10636-8 1-441)
Sequence (P10636 other isoform, or with tags, fused parts or gaps limits assumed): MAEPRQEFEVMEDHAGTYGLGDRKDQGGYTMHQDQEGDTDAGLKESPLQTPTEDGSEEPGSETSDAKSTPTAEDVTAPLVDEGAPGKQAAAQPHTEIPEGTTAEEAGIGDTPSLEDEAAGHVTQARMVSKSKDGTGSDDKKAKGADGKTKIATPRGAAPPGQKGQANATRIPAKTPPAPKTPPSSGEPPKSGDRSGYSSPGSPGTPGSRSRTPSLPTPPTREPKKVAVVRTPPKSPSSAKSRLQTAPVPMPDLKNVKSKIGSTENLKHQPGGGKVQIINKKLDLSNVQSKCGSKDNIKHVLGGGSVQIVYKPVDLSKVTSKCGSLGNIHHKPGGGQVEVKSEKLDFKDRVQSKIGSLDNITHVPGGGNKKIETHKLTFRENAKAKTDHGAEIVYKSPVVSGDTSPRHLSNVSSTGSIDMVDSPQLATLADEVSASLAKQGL
METHOD_SUMMARY: cell-based or functional assay
Square brackets hold non-standard residues; d marks the D form. Ends that are not written are not given here. hArg = N=C(N)NCCCC[C@H](N)C(=O)O; Orn = NCCC[C@H](N)C(=O)O
Lab note: compare IC50 (µM), Tau40 assay (ThT) with 3 µM, writing YES if less and NO if equal or more.

WY[Orn]L[Orn]I[Orn]W [WYOLOIOW]
NO
IRIRWRW
YES
RIRIFIF
YES
W[hArg]I[hArg]L[hArg]W [W(hR)I(hR)L(hR)W]
NO
RIWIRLW
YES
RIHIFFW
NO
WRIFIRYW
NO

Decide: IC50 (µM), Tau40 assay (ThT) of `WRARARW` strictly below 3 µM?
NO
